Test system: K4 kissing-loop RNA reporter
Assay: apparent KD of K4 kissing-loop reporter; higher = weaker reporter binding
Conditions: Eterna round: R107; input ligand: theophylline 20 uM
Decision: apparent KD of K4 kissing-loop reporter >= 0.2 µM yields MET, all other cases yield NOT MET.

The examples below pair each entry with its known result.
CCGAAGAACCAGUGAUGUUGGUUGACUAGACAGGAUAUGAGCAACAUCAGAAGGGUCUGGCUUCGGGAGAGAGUCGCGCUGACCU [Anditebier]    NOT MET
GGUAGCAUGGCGGCCGCCACUUAUGUUCACAUAGUGAUGUUAUGUUCACAUUUAUGGCCCUGCUUAAGGACCGGGCCAUGCUACC    NOT MET
GCCGUAGAUUGAAGGAGCGAGGCUACUUAAAGACCGAGUGAUGUUCGGGAACGUGAAACUCCUCAGGUAGGUCGCAAUCUACGGC    MET
AGAACUGUCUUGGAUACCAGUGAUGUUGGUAUCUGUGUGUGAGUGCAAAGCGUCCCACAUUGCCCUUGGCAGCUAAGACUGUUCA [Omei KL Theo B Exc A v1]    NOT MET

Textbook exercise: given the entry `GCCGUACGCAUGGAUACCAGCGUACGUCACCUAGCAGUGAUGUUGCUAUUGCCACGUAAACGCCCUUGGCAGCCAUGCGUACGGC` , state whether its apparent KD of K4 kissing-loop reporter is greater than or equal to 0.2 µM. NOT MET

Does CAUACGCAUGGAGGAUAUGAGAUUACUCAUAUCAUUUAAUAUUCUCAGUGAUGUUGAGAUUUGGGCUCAGAAGGCCAUGUGUAUG [Ex FMN B 15] have a reported apparent KD of K4 kissing-loop reporter of at least 0.2 µM? MET

* * *

apparent KD of K4 kissing-loop reporter values, listed per item
Test system: K4 kissing-loop RNA reporter;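 note: bound reporter read as fluorescence of individual clusters on recovered sequencing chips by microscopy, with normalized cluster intensities fitted with a binding model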
Experiment: apparent KD of K4 kissing-loop reporter; higher = weaker reporter binding
Conditions: Eterna round: R107; input ligand: arginine 13.2 mM
Return type: number; implicit unit nM.

Answered cases to consult:
AAUAAAAUCACGGCCGCCACUGAAUAAUUGGUAAGUAGUGAUGUUACUUUACUUUUCUUAUUUAACAGGACCGGGUGAAUAUUUA [JR_ExcTryptoB_Sub009]    83.4
UCUCAAGCACAGUGAUGUUGUGCUUGGGAAGGAGCGCGUGGGAACGCAGGUAGGUCGCCCGGUAAAUCGCGUCAAUGCUAGAGGC [Arg A Ex t5]    110

Which value of apparent KD of K4 kissing-loop reporter has been reported for `UCCUGCAAUCGGCCACGAAAGUGGAUUGAUACCAGAGUCGAAAGACUCCCUUGGCAGCGAGUGAUGUUCGAAGCAGGUAAAUAAA` in the records? 380

* * *

Tested on: MS2 coat protein
Assay: apparent KD of MS2 coat protein; higher = weaker reporter binding
Settings: Eterna round: R107; input ligand: arginine 13.2 mM
// classify(record): look up apparent KD of MS2 coat protein in ranges lo: < 20 nM; med: ≥ 20 nM and < 30 nM; hi: ≥ 30 nM

Please review the entries below; each comes with its answer.
GGCACAUAGUCGGCCGCCACUACUAACACCUCAGACAACAUGAGGAUCACCCAUGUUCCAGAGUGUAGGACCGGGACUAUGUGCC [Minonka]    lo
AACACAUGAGGAUCACCCAUGUCCAUGUACCGAGGACCGGUACGGCCGCCACUCGACAUGAGGAUCACCCAUGUUCCAUGUUGUC [Same State Tryptophan A 3]    hi
GCACGACAUGAGGAUCACCCAUGUGCAGAUACCAGUAGGAUAUCCUACCCUUGGCAGCUGAGUGGAUCCGGAGGACCAUGGGUAA [Same State Theophylline A GF8]    hi

Into which category would you place UCAUAUUAGUGAGAUGUAAGGUAUCAUGAUACCAGUAGAUAAUUAUACCCUUGGCAGCAUAACAUGAGGAUCACCCAUGUACAUG [Ab] ? med

Hi there! Could you help me figure out the category for AAGACAUGAGGAUCACCCAUGUGGAGGGAUACCAGCCUGUGUGUGGGCCCUUGGCAGCUUAAAUUUAAUUUAAUUAAAUAAAUUU [Same State - Theophylline A] please? med

Quick check: band for UAUCUAACGAAGGAUACCAGUACAUGAGAGUACAUGAGGAUCACCCAUGUUAGAUACGGGUACCCUUGGCAGCCUCACCUACACC [theeternabot_sameState_MS2_Theo_B_11] hi

Input UGUAUGUGAUUUGAUACCAGACCAGCGGGUGUUGCAUGAGGAUCACCCAUGUAGGUUUGGGUCCCUUGGCAGCAAAUCGCAUACU [SS Theo B #24 Ms18] ; output its category hi
